assay: Example 6: multiple-dose study in iron-overloaded human subjects (PK); assay type: in vivo; conditions: both sexes, human, plasma; 16 mg/kg/day, 7 days oral; N = 4; read-out: T1/2 (converted)
MEASUREMENT LABEL: half-life

Query: Fill in the blank: the reported half-life of COCCOCCOCCOc1cccc(C2=N[C@@](C)(C(=O)O)CS2)c1O is ____.
Result: 21.3 h

---

assay: Example 6: multiple-dose study in iron-overloaded human subjects (PK); type: in vivo; details: both sexes, human, plasma, oral; across 5 cohorts; read-out: median values for tmax, range
MEASUREMENT LABEL: Tmax

Query: Fill in the blank: the reported Tmax of COCCOCCOCCOc1cccc(C2=N[C@@](C)(C(=O)O)CS2)c1O is ____.
Result: 1 to 1.49 h
